- System: SK-MEL-2
- protocol_description: NCI tumour cell line growth inhibition, 48 h
Active and inactive are the calls of the source. Rule as the data show it: active = GI50 up to about 1.1 µM and inactive = higher.
Mark one answer only. Choices: active, inactive

Request: Assay outcome for COC1C(CN[N+](=O)CC2OC3OC(C)(C)OC3C2OC)OC2OC(C)(C)OC21 (stereo unspecified) : what was it?
Result: inactive

Request: Consider next the compound CC1(C)C2CCC(=O)C1CC2 (stereo unspecified) in the same way.
Result: inactive

Request: Consider next the compound C[N+]1(C)C2CC(OC(=O)C(CO)c3ccccc3)CC1C1OC12 (stereo unspecified) in the same way.
Result: inactive

Request: Consider next the compound `O=C1Nc2ccccc2/C1=C\c1c(Cl)[nH]c2ccccc12` in the same way.
Result: active

Request: Consider next the compound `COP(=O)(OC)c1ccc(NCc2cc(O)ccc2O)cc1` in the same way.
Result: inactive

Request: Consider next the compound `C=C(C)C(=O)[C@@]12C(=O)[C@@H](C)CC[C@H]1[C@H](C)C[C@@H]2C=C(C)C` in the same way.
Result: inactive

----------
Exercise: state measured GI50 for each of the compounds provided.
- System: SF-295
- protocol_description: NCI tumour cell line growth inhibition, 48 h
The source made the active and inactive calls. Rule as the data show it: active = GI50 up to about 1.1 µM and inactive = higher.

Request: Form field: reported GI50 of COC(=O)C(Cc1nc2ccc(Cl)cc2nc1O)/C(=N/NC(N)=O)C(=O)Nc1ccc(Cl)cc1 (stereo unspecified)
Result: > 100 µM (inactive)

Request: Consider next the compound COC(=O)C1C2C=CC(C2)N1S(=O)(=O)c1ccccc1 (stereo unspecified) in the same way.
Result: > 100 µM (inactive)

Request: Consider next the compound `C[Si](C)(C)C#Cc1cc(-c2nc3ccccc3s2)ccc1N` in the same way.
Result: 18.6 µM (inactive)

Request: Consider next the compound c1ccc(C(NC2=NCCO2)C2CC2)cc1 (stereo unspecified) in the same way.
Result: > 100 µM (inactive)

Request: Consider next the compound CC1OC(n2cc(I)c(=O)[nH]c2=O)C=CC1=O (stereo unspecified) in the same way.
Result: 18.5 µM (inactive)

Request: Consider next the compound CC(C)CC(Nc1c(O)ccc2ccccc12)C(=O)O (stereo unspecified) in the same way.
Result: 20.5 µM (inactive)

----------
- System: PC-3
- protocol_description: NCI tumour cell line growth inhibition, 48 h
Active and inactive are the calls of the source. Rule as the data show it: active = GI50 up to about 1.1 µM and inactive = higher.
measurement_name: GI50

Request: Form field: reported GI50 of `CC(=O)Oc1ccc2c(-c3ccccc3)c(Oc3ccc(Cl)cc3)c(=O)oc2c1`
Result: 23.1 µM (inactive)

Request: Consider next the compound COC(=O)C(C(=O)OC)C1CC(=O)c2c(Br)sc(Br)c21 (stereo not given) in the same way.
Result: 14.2 µM (inactive)

Request: Consider next the compound `Cc1ccc2nc(N/N=C/c3cccc(C)n3)cc(C)c2c1` in the same way.
Result: 17.7 µM (inactive)

Request: Consider next the compound CC12CC(c3ccccc3O1)C(C(=O)Nc1cccc(F)c1)C(=O)N2 (stereo not given) in the same way.
Result: 49.1 µM (inactive)

Request: Consider next the compound Cc1ccc([N+](=O)[O-])cc1S(=O)(=O)Nc1ccc(C2=NN(S(=O)(=O)c3cc([N+](=O)[O-])ccc3C)C(c3ccco3)C2)cc1 (stereo not given) in the same way.
Result: 45.5 µM (inactive)

----------
- Tested on: SK-OV-3
- protocol_description: NCI tumour cell line growth inhibition, 48 h
Active and inactive are the calls of the source. No stated cut-off is given here; in the data, active = GI50 up to about 1.1 µM and inactive = higher.
measurement_name: GI50

Request: Form field: reported GI50 of `O=C1/C(=N\NC(=S)Nc2ccc(Cl)cc2)c2cc([N+](=O)[O-])ccc2N1CN1CCOCC1`
Result: 12.6 µM (inactive)

Request: Consider next the compound `Cc1nc2c(sc(=S)n2-c2ccccc2)c(=O)[nH]1` in the same way.
Result: > 100 µM (inactive)

Request: Consider next the compound `O=C1CC(=O)c2c(O)cc(O)c(c2O)-c2c(ccc(O)c2O)C2=CC(=O)c3c(O)cc(O)c(c3O2)-c2c1ccc(O)c2O.O=C1CC2(O)Oc3c1c(O)cc(O)c3-c1c(ccc(O)c1O)-c1cc(=O)c3c(O)cc(O)c(c3o1)-c1c2ccc(O)c1O` in the same way.
Result: > 50 µM (inactive)

Request: Consider next the compound `O=c1cc(-c2ccccc2)oc2ccc(Oc3nnnn3-c3ccccc3)cc12` in the same way.
Result: > 65.3 µM (inactive)

Request: Consider next the compound COC(=O)C1=CC2C(=O)OC1C1C(=O)NC(=O)C21 (stereo not drawn) in the same way.
Result: > 100 µM (inactive)

Request: Consider next the compound `Oc1ccc(CCNCc2cc3c(cc2Br)OCO3)cc1` in the same way.
Result: 51.8 µM (inactive)

Request: Consider next the compound `COC(=O)[C@H](Cc1ccccc1)NC(=O)N1CCCN(C(=O)N[C@@H](Cc2ccccc2)C(=O)OC)CCCN(C(=O)N[C@@H](Cc2ccccc2)C(=O)OC)CCC1` in the same way.
Result: 22.8 µM (inactive)

Request: Consider next the compound `O=C(O)c1cnc2c(ccc3ncc(C(=O)O)c(O)c32)c1O` in the same way.
Result: > 100 µM (inactive)

----------
- Test system: LXFL 529
- protocol_description: NCI tumour cell line growth inhibition, 48 h
Activity calls are given as the source filed them. Cut-off read from the data, not from the text of the source: active = GI50 up to about 1.1 µM and inactive = higher.
Exercise: state measured GI50 for each of the compounds provided.

Request: Form field: reported GI50 of `O=C(NNC(=O)c1cc(/C=C/c2cccc([N+](=O)[O-])c2)nc(S)n1)Nc1ccc(Cl)cc1`
Result: 42.3 µM (inactive)

Request: Consider next the compound COC(=O)CCC(NC(=S)N/N=C/c1ccccn1)C(=O)OC (stereo not given) in the same way.
Result: > 100 µM (inactive)

Request: Consider next the compound COC1OC(CBr)C(OC(=O)c2ccccc2)C(O)C1Br (stereo not given) in the same way.
Result: > 100 µM (inactive)

Request: Consider next the compound `Cc1cccc(C(C)C)c1N1C(=O)C(=O)C(c2nc3ccccc3o2)C(=O)C1=O` in the same way.
Result: 61.1 µM (inactive)

Request: Consider next the compound COC(=O)NN1C(C)=C(C(=O)OC)C2(CCOC2=O)C1(C)O (stereo not given) in the same way.
Result: > 100 µM (inactive)

----------
- Test system: SK-MEL-5
- protocol_description: NCI tumour cell line growth inhibition, 48 h
Calls of active or inactive are those of the source. Rule as the data show it: active = GI50 up to about 1.1 µM and inactive = higher.
measurement_name: GI50

Request: # get_value(readout= GI50, system= SK-MEL-5) for `COC(=O)Nc1nc2cc(S(=O)(=O)N3CCOCC3)ccc2[nH]1`
Result: > 100 µM (inactive)

Request: Consider next the compound CC(=O)c1cc(CC2Cc3cc4c(cc3C2=O)CCC4)cc2c1CCC2 (stereo not given) in the same way.
Result: 14 µM (inactive)

Request: Consider next the compound `Sc1nnc(SCc2ccccc2Cl)c2nc[nH]c12` in the same way.
Result: > 100 µM (inactive)

Request: Consider next the compound O=C(CC(C(=O)c1cccs1)c1ccsc1)c1ccc(Cl)s1 (stereo not given) in the same way.
Result: 70.3 µM (inactive)

Request: Consider next the compound COc1ccc(N2C(=O)CC(C3CC(C(C)(C)C)CCC3=O)C2=O)cc1 (stereo not given) in the same way.
Result: > 100 µM (inactive)

Request: Consider next the compound COc1ccc(C2C(C#N)=C(S)N(C3OC(CO)C(O)C(O)C3O)C(c3ccccc3)=C2C(C)=O)cc1 (stereo not given) in the same way.
Result: 25.1 µM (inactive)

Request: Consider next the compound `N#C/C(N)=C(C#N)/N=C/NCc1ccccc1` in the same way.
Result: > 100 µM (inactive)

Request: Consider next the compound `COc1c2cc([N+](=O)[O-])cc1CN(C(=O)C(F)(F)F)CCOCCN(C(=O)C(F)(F)F)C2` in the same way.
Result: > 100 µM (inactive)

Request: Consider next the compound `CCOC(=O)CCSc1nc2ccc(I)cc2c(=O)n1Cc1ccccc1` in the same way.
Result: 12.6 µM (inactive)

Request: Consider next the compound COc1ccc(/C(=N/NC(N)=O)C2(O)C(=O)Nc3ccc([N+](=O)[O-])cc32)cc1 (stereo not given) in the same way.
Result: 27.3 µM (inactive)

----------
- System: SW-620
- protocol_description: NCI tumour cell line growth inhibition, 48 h
Active and inactive are the calls of the source. Cut-off read from the data, not from the text of the source: active = GI50 up to about 1.1 µM and inactive = higher.
measurement_name: GI50

Request: Form field: reported GI50 of `O=C(c1ccc(NCN2C(=O)CCC2=O)cc1)c1ccc(NCN2C(=O)CCC2=O)cc1`
Result: 58.5 µM (inactive)

Request: Consider next the compound `Cc1csc(NCc2ccc(Cl)cc2)n1` in the same way.
Result: 69.7 µM (inactive)

Request: Consider next the compound `COc1ccc(C(=O)/C=C/c2cc(O)c(O)cc2F)c(OC)c1` in the same way.
Result: 6.82 µM (inactive)

Request: Consider next the compound O=C(Cn1cc(I)c(C(=O)NCC(O)CO)n1)NCC(O)CO (configuration not stated) in the same way.
Result: > 100 µM (inactive)

Request: Consider next the compound COc1cc(C2C(C(=O)O)=C(COC(C)=O)Oc3cc4c(cc32)OCO4)cc(OC)c1OC (configuration not stated) in the same way.
Result: > 100 µM (inactive)

Request: Consider next the compound `O=C(CSc1nnc(Cc2ccccc2)o1)Nc1cccc(Cl)c1` in the same way.
Result: > 100 µM (inactive)

Request: Consider next the compound OC(c1cc(C(F)(F)F)nc2c(Cl)cc(Cl)cc12)C1CCCCN1 (configuration not stated) in the same way.
Result: 5.89 µM (inactive)

Request: Consider next the compound `Cc1nn(-c2ccccc2)c(C)c1/C=N/N=C1\S/C(=C\c2ccc(Cl)cc2)C(=O)N1c1ccccc1` in the same way.
Result: 9.2 µM (inactive)

Request: Consider next the compound COC12COC(=O)C1C(c1ccc3c(c1)OCO3)c1cc3c(cc1O2)OCO3 (configuration not stated) in the same way.
Result: 8.49 µM (inactive)

Request: Consider next the compound `C[N+]1(C)C/C(=C\C=C\c2ccccc2)C(=O)/C(=C/C=C/c2ccccc2)C1` in the same way.
Result: 9.79 µM (inactive)

Request: Consider next the compound `Nc1ccc(-c2nnc(-c3c(Cl)c(Cl)c(Cl)c(Cl)c3-c3nc4cc(C(=O)c5ccccc5)ccc4[nH]3)o2)cc1` in the same way.
Result: 29.5 µM (inactive)

Request: Consider next the compound `O=c1cc(-c2ccccc2)oc2ccc(Oc3nnnn3-c3ccccc3)cc12` in the same way.
Result: > 100 µM (inactive)

Request: Consider next the compound `CCOP(=O)(/C=C\n1cc(C)c(=O)[nH]c1=O)OCC` in the same way.
Result: > 100 µM (inactive)

Request: Consider next the compound CCCCCCCC(=O)N1C2CC3CCC2(CS1(=O)=O)C3(C)C (configuration not stated) in the same way.
Result: 23.3 µM (inactive)

Request: Consider next the compound `CCCCCCCCCCCCNC(=S)OCCCC` in the same way.
Result: > 100 µM (inactive)

Request: Consider next the compound `O=C1/C(=N\NC(=S)Nc2ccc(Cl)cc2)c2cc([N+](=O)[O-])ccc2N1CN1CCOCC1` in the same way.
Result: 4.37 µM (inactive)

Request: Consider next the compound `O=C1Oc2ccccc2C(=O)/C1=C/N1C(=O)CNC1=S` in the same way.
Result: > 100 µM (inactive)

Request: Consider next the compound `Cc1cc2c(cc1C)N1Cc3c(ccc(C)c3C)N(C2)C1.Cc1cc2c(cc1C)N1Cc3cc(C)c(C)cc3N(C2)C1` in the same way.
Result: > 100 µM (inactive)

Request: Consider next the compound `c1ccc(-c2nnn(CCN3CCCCC3)n2)cc1` in the same way.
Result: > 100 µM (inactive)

Request: Consider next the compound COc1cc2c(cc1O)[C@H](C)C(c1ccc(Cl)cc1)O2 (some centres not stated) in the same way.
Result: 17.4 µM (inactive)

Request: Consider next the compound N#C/C(=C\c1ccc(O)c(O)c1)C(N)=S [TYRPHOSTIN 47] in the same way.
Result: 79.1 µM (inactive)

Request: Consider next the compound `CC(C)NCCNC(=O)c1ccccc1Nc1c(Cl)cccc1Cl` in the same way.
Result: 15.5 µM (inactive)
